# System Under Test: T1, purified human CD117 ectodomain (R&D Systems #332-SR) (human, UniProt P10721 26-524)
# T1 construct: extracellular domain; Bought protein; also called c-kit; purified recombinant human CD117 ectodomain
# T1 sequence (P10721 26-524): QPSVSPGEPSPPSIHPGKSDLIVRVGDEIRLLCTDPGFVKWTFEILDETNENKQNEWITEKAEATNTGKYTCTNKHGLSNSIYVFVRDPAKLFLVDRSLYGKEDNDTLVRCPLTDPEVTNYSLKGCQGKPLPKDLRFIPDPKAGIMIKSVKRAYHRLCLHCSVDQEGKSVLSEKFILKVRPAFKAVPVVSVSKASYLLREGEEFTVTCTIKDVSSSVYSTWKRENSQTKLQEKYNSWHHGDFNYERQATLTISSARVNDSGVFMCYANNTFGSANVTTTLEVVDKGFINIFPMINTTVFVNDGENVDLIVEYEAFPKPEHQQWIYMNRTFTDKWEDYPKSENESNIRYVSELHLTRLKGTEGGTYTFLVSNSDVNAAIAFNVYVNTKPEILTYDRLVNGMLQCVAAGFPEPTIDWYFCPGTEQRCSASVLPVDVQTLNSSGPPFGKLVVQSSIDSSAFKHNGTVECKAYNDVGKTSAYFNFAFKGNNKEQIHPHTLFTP
# Assay Text: BLI, purified IgG on sensor, soluble ectodomain; apparent monovalent
# Kd annotations
# number only, unit nM dropped from output

# count of solved cases: 4
>>> quantitative_readout("HC-23/LC-23 (Ab23) (antibody, IgG1, V domains shown, From rat immunization/hybridoma; purified IgG in BLI; also called 023) VH: EVQLQQYGAELGKPGTSVRLSCKVSGYNIRNTYIHWVHQRPGEGLEWIGRIDPTNGNTISAEKFKSKATLTADTSSNTAYMQFSQLKSDDTAIYFCAMNYEGYADYWGQGVMVTVSS VL: DIQMTQSPSFLSASVGDRLTINCKASQNINKYLNWYQQKLGEAPKRLIFKTNSLQTGIPSRFSGSGSGTDYTLTISSLQPEDVATYFCFQYNIGFTFGAGTKLELK")
1.49
>>> quantitative_readout("HC-11/LC-11 (Ab11) (antibody, IgG1, V domains shown, Purified IgG; also called 011) VH: QVQLVQSGAAVKKPGESLKISCKGSGYRFTTYWIGWVRQMPGKGLEWMGIIYPGDSDTRYSPSFQGQVTISAGKSISTAYLQWSSLKASDTAMYYCARHGRGYNGYEGAFDIWGQGTMVTVSS VL: AIQLTQSPSSLSASVGDRVTITCRASQSIGDYLTWYQQKPGKAPKVLIYGASSLQSGVPPRFSGSGSGTDFTLTVSSLQPEDFATYYCQQLNSYPLTFGGGTKLEIK")
1.41
>>> quantitative_readout("HC-9/LC-9 (Ab9) (antibody, IgG1, V domains shown, Purified IgG; also called 009) VH: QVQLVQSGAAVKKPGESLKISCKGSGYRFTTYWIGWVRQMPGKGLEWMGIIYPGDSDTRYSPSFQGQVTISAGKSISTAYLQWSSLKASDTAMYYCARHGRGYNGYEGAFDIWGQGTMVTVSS VL: AIRMTQSPSSLSASVGDRVTITCQASQGIRNDLGWYQQKPGKAPKLLIYDASNLETGVPSRFSGSGSGTDFTFTISSLQPEDIATYYCQQFNSYPLTFGGGTKLEIK")
1.51
>>> quantitative_readout("HC-28/LC-28 (Ab28) (antibody, IgG1, V domains shown, From rat immunization/hybridoma; purified IgG in BLI; also called 028) VH: EVQLQQYGAELGKPGTSVRLSCKVSGYKIRNTYIHWVNQRPGKGLEWIGRIDPANGNTIYAEKFKSKVTLTADTSSNTAYMQLSQLKSDDTALYFCAMNYEGYEDYWGQGVMVTVSS VL: DIQMTQSPSFLSASVGDSVTINCKASQNINKYLNWYQQKLGEAPKRLIHKTNSLQPGFPSRFSGSGSGTDYTLTISSLQPEDVAAYFCFQYNSGFTFGAGTKLELK")
0.403

Proceed to the following item.
According to the records, this binder HC-18/LC-18 (Ab18) (antibody, IgG1, V domains shown, From rat immunization/hybridoma; purified IgG in BLI; also called 018) VH: EVQLQQYGAELGKPGTSVRLSCKVSGYNIRNTYIHWVNQRPGEGLEWIGRIDPTNGNTISAEKFKTKATLTADTSSHTAYLQFSQLKSDDTAIYFCALNYEGYADYWGQGVMVTGSS VL: DIQMTQSPSFLSASVGDRVTINCKASQNINKYLNWYQQKVGEAPKRLIFKTNSLQTGIPSRFSGSGSGTDYTLTISSLQTEDVATYFCFQYNIGYTFGAGTKVELK displays Kd of 22.2
